# Target under test: human GCG receptor (human, UniProt P47871 26-477)
# Sequence (P47871 26-477): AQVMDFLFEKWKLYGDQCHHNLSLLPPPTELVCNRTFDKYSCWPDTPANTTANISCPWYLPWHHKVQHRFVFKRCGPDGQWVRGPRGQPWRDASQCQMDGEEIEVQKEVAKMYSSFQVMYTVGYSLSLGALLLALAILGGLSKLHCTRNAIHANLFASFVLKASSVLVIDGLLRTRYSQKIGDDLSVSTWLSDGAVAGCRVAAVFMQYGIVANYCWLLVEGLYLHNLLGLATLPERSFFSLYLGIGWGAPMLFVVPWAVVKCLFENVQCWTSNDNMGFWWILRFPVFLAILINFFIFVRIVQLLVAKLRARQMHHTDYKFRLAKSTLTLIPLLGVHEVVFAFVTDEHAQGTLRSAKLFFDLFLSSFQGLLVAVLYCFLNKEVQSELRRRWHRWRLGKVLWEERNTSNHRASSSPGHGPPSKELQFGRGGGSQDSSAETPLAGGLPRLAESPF
# Procedure details: cell-based or functional assay
Bridges are numbered along the chain shown (N, C = ends). Where no end group is shown, it is not given here. [ ]: non-standard residue; d: D form. The star is where a group is joined. Acetyl(2-(4-imidazolyl)) = O=C(Cc1c[nH]cn1)*; Aib = CC(C)(N)C(=O)O
Recorded In vitro activity (%) vs. Glucagon, cAMP EC50 by entry
Measurement kind: In vitro activity (%) vs. Glucagon, cAMP EC50

[
  {
    "Binder": "Y[Aib]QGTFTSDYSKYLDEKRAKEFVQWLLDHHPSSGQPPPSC (bridge 16-20) [triple agonist of SEQ ID NO: 42]",
    "Result": "206%"
  },
  {
    "Binder": "[Acetyl(2-(4-imidazolyl))][Aib]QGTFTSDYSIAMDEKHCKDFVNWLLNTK (bridge 16-20; ends not checked) [triple agonist of SEQ ID NO: 60]",
    "Result": "< 0.1%"
  },
  {
    "Binder": "H[Aib]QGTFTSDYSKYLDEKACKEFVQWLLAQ (bridge 16-20) [triple agonist of SEQ ID NO: 31]",
    "Result": "2.2%"
  }
]

Sourced from patent US20220088148A1
